Target: T1, CD19 (UniProt P15391 20-556, limits assumed)
T1 construct: whole, on cells; also called CD19 on JeKo-1
T1 sequence (looked up): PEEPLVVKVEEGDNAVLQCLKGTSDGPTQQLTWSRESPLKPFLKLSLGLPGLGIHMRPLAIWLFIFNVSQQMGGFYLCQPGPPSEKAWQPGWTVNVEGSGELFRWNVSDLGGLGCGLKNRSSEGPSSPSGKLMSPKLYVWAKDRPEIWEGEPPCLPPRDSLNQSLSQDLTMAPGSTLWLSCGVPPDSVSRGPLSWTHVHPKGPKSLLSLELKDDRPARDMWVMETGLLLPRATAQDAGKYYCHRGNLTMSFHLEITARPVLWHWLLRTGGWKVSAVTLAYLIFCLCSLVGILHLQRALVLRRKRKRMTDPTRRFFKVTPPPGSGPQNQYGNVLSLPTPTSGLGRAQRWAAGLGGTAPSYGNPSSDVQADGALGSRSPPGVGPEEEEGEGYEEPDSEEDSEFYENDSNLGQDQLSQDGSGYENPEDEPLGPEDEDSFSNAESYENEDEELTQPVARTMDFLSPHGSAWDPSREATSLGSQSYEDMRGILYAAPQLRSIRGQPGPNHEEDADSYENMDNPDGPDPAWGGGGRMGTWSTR
Assay: flow cytometry, JeKo-1 cells, bridge at saturating conc., anti-His-FITC detection
This section presents binders with their documented MFI HisTag FITC values.
Output spec: single numeric token, no unit.

Previously resolved entries follow.
binder	test value
CD19 BRIDGE variant B8 (Fab, V domains shown) VH: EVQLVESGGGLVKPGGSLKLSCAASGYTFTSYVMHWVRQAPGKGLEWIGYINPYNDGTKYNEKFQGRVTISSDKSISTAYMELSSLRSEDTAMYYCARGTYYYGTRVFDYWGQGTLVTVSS VL: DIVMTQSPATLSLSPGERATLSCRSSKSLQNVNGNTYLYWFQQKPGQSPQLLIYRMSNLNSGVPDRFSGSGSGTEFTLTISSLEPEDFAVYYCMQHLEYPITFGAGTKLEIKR	3.58
CD19 BRIDGE variant B14 (Fab, V domains shown) VH: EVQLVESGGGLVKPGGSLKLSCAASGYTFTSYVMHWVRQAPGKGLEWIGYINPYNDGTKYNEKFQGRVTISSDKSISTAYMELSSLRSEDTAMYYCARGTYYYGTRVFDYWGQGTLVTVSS VL: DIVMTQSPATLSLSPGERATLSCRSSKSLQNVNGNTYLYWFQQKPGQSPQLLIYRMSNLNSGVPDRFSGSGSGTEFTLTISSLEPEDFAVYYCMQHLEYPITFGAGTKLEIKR	3.12
CD19 BRIDGE variant B13 (Fab, V domains shown) VH: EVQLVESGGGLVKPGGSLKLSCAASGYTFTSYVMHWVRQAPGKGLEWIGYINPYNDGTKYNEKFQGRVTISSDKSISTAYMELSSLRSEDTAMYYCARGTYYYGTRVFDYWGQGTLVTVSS VL: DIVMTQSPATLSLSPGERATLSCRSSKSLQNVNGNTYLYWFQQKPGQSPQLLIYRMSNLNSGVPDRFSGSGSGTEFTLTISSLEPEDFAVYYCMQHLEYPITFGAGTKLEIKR	2.99
CD19 BRIDGE variant B3 (Fab, V domains shown) VH: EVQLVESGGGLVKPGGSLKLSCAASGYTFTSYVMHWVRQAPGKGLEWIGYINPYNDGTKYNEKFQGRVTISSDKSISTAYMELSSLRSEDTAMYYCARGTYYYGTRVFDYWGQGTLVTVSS VL: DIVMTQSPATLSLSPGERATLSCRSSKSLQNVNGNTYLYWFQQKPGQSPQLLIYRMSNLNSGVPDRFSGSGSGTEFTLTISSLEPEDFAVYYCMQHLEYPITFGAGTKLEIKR	3.63
CD19 BRIDGE variant B2 (Fab, V domains shown) VH: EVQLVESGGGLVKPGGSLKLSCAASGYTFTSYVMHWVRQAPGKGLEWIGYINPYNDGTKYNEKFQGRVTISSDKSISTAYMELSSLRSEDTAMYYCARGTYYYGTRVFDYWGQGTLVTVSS VL: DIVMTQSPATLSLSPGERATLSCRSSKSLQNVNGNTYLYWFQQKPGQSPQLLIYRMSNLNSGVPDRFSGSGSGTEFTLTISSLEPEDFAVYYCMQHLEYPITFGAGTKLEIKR	3.47

Query binder follows.
Item: CD19 BRIDGE variant B19 (Fab, V domains shown) VH: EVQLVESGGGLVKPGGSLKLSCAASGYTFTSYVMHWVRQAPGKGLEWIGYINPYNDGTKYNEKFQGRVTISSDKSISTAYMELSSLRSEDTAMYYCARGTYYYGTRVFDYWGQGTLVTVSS VL: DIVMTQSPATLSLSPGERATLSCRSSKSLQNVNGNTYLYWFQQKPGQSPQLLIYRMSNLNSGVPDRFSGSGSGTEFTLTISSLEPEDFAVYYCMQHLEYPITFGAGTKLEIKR | MFI HisTag FITC: 2.7
